# Measurement target: serotonin 5-HT3 receptor (Cavia porcellus)
# Construct: Longitudinal muscle samples of about 20 mm were prepared from the ileum of Hartley male guinea pigs; from tissue; host or cells: guinea pig (Hartley, male) ileum longitudinal muscle
# Sequence (O70212 20-490): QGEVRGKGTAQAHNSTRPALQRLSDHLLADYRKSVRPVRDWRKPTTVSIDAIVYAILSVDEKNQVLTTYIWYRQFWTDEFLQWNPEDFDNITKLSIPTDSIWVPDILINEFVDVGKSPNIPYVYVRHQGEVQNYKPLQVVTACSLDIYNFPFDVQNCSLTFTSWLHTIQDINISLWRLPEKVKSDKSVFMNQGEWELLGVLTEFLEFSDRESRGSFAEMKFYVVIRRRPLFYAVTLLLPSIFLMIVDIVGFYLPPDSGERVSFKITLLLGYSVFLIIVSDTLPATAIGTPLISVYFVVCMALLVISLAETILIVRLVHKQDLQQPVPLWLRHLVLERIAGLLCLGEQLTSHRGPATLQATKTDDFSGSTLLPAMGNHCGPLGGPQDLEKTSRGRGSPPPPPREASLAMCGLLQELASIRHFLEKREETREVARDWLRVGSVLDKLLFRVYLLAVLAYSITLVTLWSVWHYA
# Procedure text: 5-HT3 receptor activating action test, isometric contraction of guinea pig ileum longitudinal muscle
# Assay type: cell-based
# Experimental setup: ratio of maximum reaction of compound to maximum contraction by 10 μM serotonin 5-HT defined as 1; guinea pig ileum, 5-HT4 receptor desensitized
Readout kind: Activation Action i.a.

Compound: Cc1cc(Cl)cc2nc(N3CCCN(C)CC3)oc12
Activation Action i.a.: 0.15

Compound: Cc1cc(Cl)cc2nc(N3CCN(C)CC3)oc12
Activation Action i.a.: 0.24

Compound: Cc1cc(C)c2oc(N3CCCN(C)CC3)nc2c1
Activation Action i.a.: 0.28

Compound: CN1CCN(c2nc3cc4ccccc4cc3o2)CC1 [B, reference compound]
Activation Action i.a.: 0.45

Compound: C=CC[N+]1(C)CCN(c2nc3cc(C)ccc3o2)CC1.[Br-]
Activation Action i.a.: 0.79

Compound: Cc1ccc2oc(C3CCNCC3)nc2c1
Activation Action i.a.: 0.24

What value of Activation Action i.a. has been reported for the following compound? CN1CCCN(c2nc3c(ccc4ccccc43)o2)CC1
0.21

GET /values?readout=Activation Action i.a.&item= Cc1cc(C)c2oc(N3CCNCC3)nc2c1
0.18
